Experiment: yeast display, Sf9 membrane polyspecificity reagent, FACS + sequencing; frameworks hold sequencing errors

- sequenceEntry: "QVQLVESGGGLVQAGGSLRLSCAASGSTFGANAMGWYRQAPGKERELVATISSGGRTYYADSVKGRFTISRDNAKNTVYLQMNSLKPEDTAVYYCNAGADYTYVYISVYVLYDYWGQGTQVTVSS"
  polyreactivity (PSR sort gate): "low polyreactivity"
- sequenceEntry: "QLQLVESGGGLVQAGGSLRLSCAASGRTFWYYAMGWYRQAPGKESELVAGISRGGSTNYADSVKGRFTISRDNAKNTVYLQMKSLKPADTAVYYCIVGRWYSQGTTGVFKGGYWGQGTQVTVSS"
  polyreactivity (PSR sort gate): "low polyreactivity"
- sequenceEntry: "QVQLVESGGGIVQAGGSLRLSCAASGFTFVNNAIGWYRQAPGKERELVASITRRGGRTYYADSVKGRFTISRDNAKNTVYLQMNSLKPEDTAVYYCAVQGYGWGPLGYAEYDYWGQGTQVTVSS"
  polyreactivity (PSR sort gate): "high polyreactivity"
- sequenceEntry: "QVQLVESGGGLVQAGGSLRLSCAASGFTFAVYAMGWSRQAAAKERELVAAISRSGTRTYYADSVKGRFTISRDNGKNTVYLQMNSLKPEDTAVYYFAAEVPDTDAYGYWGQGTQVTVSS"
  polyreactivity (PSR sort gate): "low polyreactivity"
- sequenceEntry: "QVQLVESGGGLVQAGGSLRLSCAASGSTFYANAMGWYRQAPGKDRELVAAITRSGAGTYYADSVKGRFTISRDNAKNTGYLQMNSLKPEDTAVYYCAKRTKTPTGYVWGGYDYWGQGTQVTGSS"
  polyreactivity (PSR sort gate): "high polyreactivity"

* * *

Assay: yeast display, Sf9 membrane polyspecificity reagent, FACS + sequencing; frameworks hold sequencing errors

- sequenceEntry: "QVQLVESGGGLVQAGGSLRLSCAASGRIWVYYTMGWYRQAPGKERELVAAITGSGGSTYYADSVTGRFTISRDNATNTVYLQMNSLKPEDTAVYYCAVYDSYRKFKYWGQGTQVTVSS"
  polyreactivity (PSR sort gate): "high polyreactivity"
- sequenceEntry: "QVLLVESGGGLVQAGGSLRLSCAAWSIFYLNAMGWYRQAPGKERELVAAISSAGSTYYADSVKVRFTISRDNAKNTVYLQMNSLKPEDTAVYYCAAYWYDSPGVTEIWYDYWGQGTQVTVSS"
  polyreactivity (PSR sort gate): "low polyreactivity"
- sequenceEntry: "QVQLVESGGGLVQAGGSLRLSCAASGSIFLRYAMGWYRQAPGKERELVAAISLSGGNTYYADSVKGRFTISRDNSKNTVYLQMNSLKPEDTAVYYCAATRTKRKFDYWGQGTQVTVSS"
  polyreactivity (PSR sort gate): "high polyreactivity"
- sequenceEntry: "QFQLVESGGGLVQAGGSLRLSCAASGRIWWNAKGWYRQAPGNEREMVAAIRWSGGIKRYADSVKGRFTISRDNAKNTVYLQMNSLKREDTAVYYCDARLGGSIRSKFDYWGQGTQVTVSS"
  polyreactivity (PSR sort gate): "high polyreactivity"
- sequenceEntry: "QVQLVESGGGLVQAGGSLRLSCAASGLIFANYAMGWYRQAPGKERELVAAITWSGGTTYYADSVKGRFTISRDNAKNTVYLQMNSLKPEDTAVYYCAAEVPYYQAAEYDYWGQGTQVTVSS"
  polyreactivity (PSR sort gate): "low polyreactivity"

* * *

Experiment: yeast display, Sf9 membrane polyspecificity reagent, FACS + sequencing; frameworks hold sequencing errors
quantityMeasured: polyreactivity (PSR sort gate)

- sequenceEntry: "QVQLVESGGGLVQAGGSLRLSCAASGSIFRYNAMGWYRKAPGKERELVAAIRSGGSTYYADSVKGRFTISRDNAKNTVYLQMNSLKPEDTAVYYCNARRYVGYDYWGQGTQVTVSS"
  quantityMeasured: "polyreactivity (PSR sort gate)"
  reportedResult: "high polyreactivity"
- sequenceEntry: "QFQLVESGGGLVQAGGSLRLSCASSGRTFGYNTMGWYRQAPGKERELVAAINYSGGSTYYADSVKGRFTISRDNAKNTVYLQMNSLKPEDTAVYYCNAKPRWYVPYDYWGQGTQVTVSS"
  quantityMeasured: "polyreactivity (PSR sort gate)"
  reportedResult: "high polyreactivity"
- sequenceEntry: "QVQLVESGGGLVQAGGSLRLSCAASGRTFFGYAMGWYRQAPGKERELVAAINWGGASTYYADSVKGRFTISRDNAKNTVYLQMNSLKPEDTAVYYCAADSVPSRPTYGRYDYWGQGTQVTVSS"
  quantityMeasured: "polyreactivity (PSR sort gate)"
  reportedResult: "low polyreactivity"
- sequenceEntry: "QVQLVESGGGLVQAGGSLRLSCAASGSIFGRYAMGWSRQAPGKERELVAAISRGGSTNYADSVKGRFTISRDNAKNTVYLQMNSLKPEDTAVYYCNRKPYYVSSTRYDYWGQGTQVTVAS"
  quantityMeasured: "polyreactivity (PSR sort gate)"
  reportedResult: "high polyreactivity"
- sequenceEntry: "QVQLVESGGGLVQAGGTLRLSCAASGSTFYRYAMGWYRTAPGKERELVATITRSGGSTYYADSVKGRFTISRDNAKNTVYLQMNSLKPEDTAVYYCAARGWYKSDYWGQGTQVTVSS"
  quantityMeasured: "polyreactivity (PSR sort gate)"
  reportedResult: "low polyreactivity"
- sequenceEntry: "QVQLVESGGGLVQAGGSLRLSCAASGIIFRRYAMGLYRQAPGKERELVAAISSRGGSTYYADSVKGRFTISRDNAKNTVYLQMNCLKPEDTAVYFCAKGFSGTGGSGDFGYWGQGTQETVSS"
  quantityMeasured: "polyreactivity (PSR sort gate)"
  reportedResult: "high polyreactivity"
- sequenceEntry: "QVQLVESGGGLVQAGGSLRLSCAASGINFVGYAMGWDRQAPGKERELVAAISTSSRTYYADSVKGRFTISRDNAKNTVYIQMNSLKPEDTAVYYCNARGTRWYYRHDYWGQGTQVTVSS"
  quantityMeasured: "polyreactivity (PSR sort gate)"
  reportedResult: "high polyreactivity"
- sequenceEntry: "QVQLVESGGGLVQAGGSLRLSCAASGSTFVVNAMGWYRPAPGKERELVAAIDGSDGSTYYADSVKGRFTISRDNAKNTVYFQMNSLKPEDTAVYYCAAEVLGRPDVENDYWGQGTQVTVSS"
  quantityMeasured: "polyreactivity (PSR sort gate)"
  reportedResult: "low polyreactivity"
- sequenceEntry: "QVQLVESGGGLVQAGGSLRLSCAASGRTFKGYVMGWYRQAPGKERELVAAITYGGGSTYYADSVKGRFTISRDNAKNTVYLQMNSLKPEDTAVYYCAADSIYGTKYDYWGQGTQVTVSS"
  quantityMeasured: "polyreactivity (PSR sort gate)"
  reportedResult: "high polyreactivity"
- sequenceEntry: "QVQLVESGGGLVQAGGSLRLSCAASGGILDTSAMGWYRQAPGKERELVAAITSGGHTNYADSVKGRFTISRDNAKNTVYLQMNSLKPEDTAVYYCNVVTWYYVFRPWEYDYWGHGTQVTVSS"
  quantityMeasured: "polyreactivity (PSR sort gate)"
  reportedResult: "low polyreactivity"
- sequenceEntry: "QVQLVESGGGLVQAGGSLRLSCAASGSIFGIYAMGWYRQAPGKERELVADITYSGGSTYYADSVKGRFTISRDNAKNTVYLQMNSLKPEDTAVYYCAADWVYVNAWTGGWTYEYWGQGTQVTVSS"
  quantityMeasured: "polyreactivity (PSR sort gate)"
  reportedResult: "high polyreactivity"
- sequenceEntry: "QVQLVESGGGLVQAGGSLRLSCAASGSTFLVYAMGWSRQAPGKERELVAAIRGGGSTNYADSVKGRFTISRDNAKNTVYLQMNSLKPEDTGVYYCAAYLLYTPSMDYWGQGTQVTVSS"
  quantityMeasured: "polyreactivity (PSR sort gate)"
  reportedResult: "low polyreactivity"
- sequenceEntry: "QVQLVESGGGLVQAGGSLRLSCAASGSTFGLNALGWYRQAPGKERELVAAISTSGGSTYYADSVKGRFTISRDNAKNTVFLQMNSLNPEDTAVYYCAADVVAGYDYSQYYYWGQGTQVTVSS"
  quantityMeasured: "polyreactivity (PSR sort gate)"
  reportedResult: "low polyreactivity"
- sequenceEntry: "QVQLVESGGGLVQAGGSLRLSCAASGSIFVLNAMGWYRQAPGKERELVATITWRGGSTYYADSVKGRFTISRDNAKNTVYLQMNSLKPEDTAVYYCAKVDIRHHRFYYWGHGTQVTVSS"
  quantityMeasured: "polyreactivity (PSR sort gate)"
  reportedResult: "low polyreactivity"
- sequenceEntry: "QVQLVESGGGLVQAGGSLRLTCAASGRIFTGYAMGWYRQAPWKERELVAAISRGSSTYADSVKGRFTISRDNAKNTVYLQRNSLKPEDTAVYYCAAKWRAADWWPRTSQYDYWGQGTQVTVSS"
  quantityMeasured: "polyreactivity (PSR sort gate)"
  reportedResult: "high polyreactivity"
- sequenceEntry: "QVQLVESGGGLVQAGGSLRLSCAASGSIFYSYAMGWYRQAPGKERELVATITRRGGSTYYADSVKGRFTISRDNAKNTVYLQMNSLKPEDTAVYYCAVKPVRYAYRIYDLRFEYWGQGTQVTVSS"
  quantityMeasured: "polyreactivity (PSR sort gate)"
  reportedResult: "high polyreactivity"
- sequenceEntry: "QVQLVESGGGLVQAGGSLRLSCAASGRIVPYAMGWYRQAPGKERELVARINFNGGSTYYADSVKGRFTISRDNAKNTVYLQMNSLKPEDTAVYDCAARVYRYRYSKYDYWGQGTQVTVSS"
  quantityMeasured: "polyreactivity (PSR sort gate)"
  reportedResult: "high polyreactivity"
- sequenceEntry: "QVQLVESGGGLVEAGGSLRLICAASGSIFYFYGMGWYRQAPGKEREVVAAITYSGGSTYYADSVKGRYTISRDNAKNTVDLQMNSLIPEDTAVYYCNADSVLELYWKMDYWGQGTQVTVSS"
  quantityMeasured: "polyreactivity (PSR sort gate)"
  reportedResult: "low polyreactivity"
- sequenceEntry: "QVHLVESGGGLVQAGGSLRLSCAASGSTLSFYARGWYRQAPGKERELVAAISSSGGSTYYADSVKGRFTISRDNAKNTVYLQMNSLKPEDTAVYYCNAVRRNYGYDYWGQGTQVTVSS"
  quantityMeasured: "polyreactivity (PSR sort gate)"
  reportedResult: "high polyreactivity"
- sequenceEntry: "QVQLVESGGGLVQAGGSLRLSCAASGSICRLYAMGWYRPARGKEREFVAGITRRTGSTYYADSVKWRFTISRDNAKNTVYLQMTSLKPEETAVYYCAKRDARATPFGYWGLGTQVTVSS"
  quantityMeasured: "polyreactivity (PSR sort gate)"
  reportedResult: "high polyreactivity"
- sequenceEntry: "QVQLVESGGGLVQAGGSLRLSCAASGTFGYYTMGWYRQAPGKERELVAAITRSGGSTYYADSVKGRFTISRDNAKNTVYLQMNSLKPEDTAVYYFATELHAWSSWNRYRAYYYWGQGTQVTVSS"
  quantityMeasured: "polyreactivity (PSR sort gate)"
  reportedResult: "high polyreactivity"
